// provenance: paper PMC9358669

I'd be grateful if you could share measured IC50 for these entries.
# tested.system: Chymotrypsin (Bos taurus)
# Construct: purchased Sigma-Aldrich
# assay.procedure: Chymotrypsin inhibition, fluorogenic substrate assay (Suc-Ala-Ala-Pro-Phe-AMC)
# Assay type: biochemical
# study.conditions: Supplementary Table 5; compounds of this study; read-out: Chymotrypsin IC50
State the answer as a number, implicitly in nM.

Fill in IC50 for record CC=C1NC(=O)[C@@H](NC(=O)[C@@H](NC(=O)[C@@H]2CCCN2C(=O)CCC)[C@@H](C)OC(=O)C2CCCN2C(=O)CCC)[C@@H](C)OC(=O)[C@H](C(C)C)NC(=O)[C@H](Cc2ccc(O)cc2)N(C)C(=O)[C@H](Cc2ccccc2)N2C(=O)[C@H](CC[C@H]2O)NC1=O (some centres unmarked) [Rivulariapeptolide 1155, rivulariapeptolide 1155]
41.8

Fill in IC50 for record C/C=C1\NC(=O)[C@@H](NC(=O)[C@@H](NC(=O)[C@H](C)NC(=O)CCC)[C@@H](C)O)[C@@H](C)OC(=O)[C@H](C(C)C)NC(=O)[C@H](Cc2ccc(O)cc2)N(C)C(=O)[C@H](Cc2ccccc2)N2C(=O)[C@H](CC[C@H]2O)NC1=O [Molassamide, molassamide]
862

###

I'd be grateful if you could share measured Mean (RFU/s) for these entries.
# tested.system: Proteinase K (Parengyodontium album)
# Construct: purchased Roche
# assay.procedure: Proteinase K inhibition, fluorogenic substrate assay (Suc-Ala-Ala-Pro-Phe-AMC)
# Assay type: biochemical, Tritirachium album
# study.conditions: Proteinase K; inhibitor concentration 37.037 nM; 40 min pre-incubation
State the answer as a number, implicitly in RFU/s.

Fill in Mean (RFU/s) for record CC=C1NC(=O)[C@@H](NC(=O)[C@@H](NC(=O)[C@@H]2CCCN2C(=O)CCC)[C@@H](C)OC(=O)C2CCCN2C(=O)CCC)[C@@H](C)OC(=O)[C@H](C(C)C)NC(=O)[C@H](Cc2ccc(O)cc2)N(C)C(=O)[C@H](Cc2ccccc2)N2C(=O)[C@H](CC[C@H]2O)NC1=O (stereo partly drawn) [Rivulariapeptolide 1155, rivulariapeptolide 1155]
4.358

Fill in Mean (RFU/s) for record C/C=C1\NC(=O)[C@@H](NC(=O)[C@@H](NC(=O)[C@H](C)NC(=O)CCC)[C@@H](C)O)[C@@H](C)OC(=O)[C@H](C(C)C)NC(=O)[C@H](Cc2ccc(O)c(Br)c2)N(C)C(=O)[C@H](Cc2ccccc2)N2C(=O)[C@H](CC[C@H]2O)NC1=O [Molassamide B, molassamide B]
0.3433

Fill in Mean (RFU/s) for record C/C=C1\NC(=O)[C@@H](NC(=O)[C@@H](NC(=O)[C@H](C)NC(=O)CCC)[C@@H](C)O)[C@@H](C)OC(=O)[C@H](C(C)C)NC(=O)[C@H](Cc2ccc(O)cc2)N(C)C(=O)[C@H](Cc2ccccc2)N2C(=O)[C@H](CC[C@H]2O)NC1=O [Molassamide, molassamide]
2.174

###

# tested.system: Proteinase K (Parengyodontium album, UniProt P06873)
# Construct: purchased Roche
# Sequence (P06873 106-384): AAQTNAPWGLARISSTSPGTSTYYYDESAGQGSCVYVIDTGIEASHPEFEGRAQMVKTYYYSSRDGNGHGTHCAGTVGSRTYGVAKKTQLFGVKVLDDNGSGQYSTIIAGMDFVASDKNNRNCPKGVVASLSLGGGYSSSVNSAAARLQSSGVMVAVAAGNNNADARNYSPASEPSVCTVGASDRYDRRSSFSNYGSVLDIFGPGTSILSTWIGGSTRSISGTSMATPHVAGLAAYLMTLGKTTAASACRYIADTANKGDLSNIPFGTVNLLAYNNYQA
# assay.procedure: Proteinase K inhibition, fluorogenic substrate assay (Suc-Ala-Ala-Pro-Phe-AMC)
# Assay type: biochemical, Tritirachium album
# study.conditions: Proteinase K; inhibitor concentration 333.333 nM; 40 min pre-incubation
readout.kind: Mean (RFU/s)
State the answer as a number, implicitly in RFU/s.

Fill in Mean (RFU/s) for record C/C=C1\NC(=O)[C@@H](NC(=O)[C@@H](NC(=O)[C@H](C)NC(=O)CCC)[C@@H](C)O)[C@@H](C)OC(=O)[C@H](C(C)C)NC(=O)[C@H](Cc2ccc(O)cc2)N(C)C(=O)[C@H](Cc2ccccc2)N2C(=O)[C@H](CC[C@H]2O)NC1=O [Molassamide, molassamide]
0.19

Fill in Mean (RFU/s) for record CC=C1NC(=O)[C@@H](NC(=O)[C@@H](NC(=O)[C@@H]2CCCN2C(=O)CCC)[C@@H](C)OC(=O)C2CCCN2C(=O)CCC)[C@@H](C)OC(=O)[C@H](C(C)C)NC(=O)[C@H](Cc2ccc(O)cc2)N(C)C(=O)[C@H](Cc2ccccc2)N2C(=O)[C@H](CC[C@H]2O)NC1=O (stereo partly shown) [Rivulariapeptolide 1155, rivulariapeptolide 1155]
0.363

Fill in Mean (RFU/s) for record C/C=C1\NC(=O)[C@@H](NC(=O)[C@@H](NC(=O)[C@H](C)NC(=O)CCC)[C@@H](C)O)[C@@H](C)OC(=O)[C@H](C(C)C)NC(=O)[C@H](Cc2ccc(O)c(Br)c2)N(C)C(=O)[C@H](Cc2ccccc2)N2C(=O)[C@H](CC[C@H]2O)NC1=O [Molassamide B, molassamide B]
0.03367

Fill in Mean (RFU/s) for record CC=C1NC(=O)[C@@H](NC(=O)[C@@H](NC(=O)[C@@H]2CCCN2C(=O)CCC)[C@@H](C)O)[C@@H](C)OC(=O)[C@H](C(C)C)NC(=O)[C@H](Cc2ccc(O)cc2)N(C)C(=O)[C@H](Cc2ccccc2)N2C(=O)[C@H](CC[C@H]2O)NC1=O [Rivulariapeptolide 988, rivulariapeptolide 988]
0.4403
